- Tested on: MALME-3M melanoma
- measurement notes: NCI tumour cell line growth inhibition, 48 h
test readout: TGI (µM)
Report as a plain number; the unit µM is understood.

Task: Data request, read-out TGI, for COC(=O)c1ccc2c(c1)CC1(C2)Cc2ccc3c(c2C1)CCC3 (centres undefined)
Output: 60.5

Task: And for C=C1c2c(C)nn(-c3ccccc3)c2N(C)C23C[C@@H]1C1(C)c4c(C)nn(-c5ccccc5)c4N(C)C(C)(C[C@H]12)C3 (some centres undefined) ?
Output: 93.5

====

- System: SK-MEL-28 melanoma
- measurement notes: NCI tumour cell line growth inhibition, 48 h
test readout: TGI (µM)
Write down the numeric answer in µM and omit the unit.

// known answers, use as guide
| smiles text | meas value |
| --- | --- |
| COc1c2c(cc3oc(=O)ccc13)OC(C)(C)C=C2 | 75.9 |
| NS(=O)(=O)OC[C@H]1O[C@@H](n2cnc3c(N[C@H]4CCc5ccccc54)ncnc32)[C@H](O)[C@@H]1O | 0.276 |

In the following, a different molecule is considered.
Task: So what does the record say about TGI for `O=C(CCCCCn1c2ccccc2c2c3c(c4c5ccccc5[nH]c4c21)C(=O)N(O)C3=O)N1CCOCC1` ?
Output: 5.4

====

- System: OVCAR-3 ovarian
- measurement notes: NCI tumour cell line growth inhibition, 48 h
Mark fulfilled for reported TGI of 4 µM or greater; mark not fulfilled for anything smaller.

These recorded examples may help you get a feel for the data.
| compound | class label |
| --- | --- |
| COC12OC3(C4OC41)C(C(=O)O[C@H]3CO[Si](C)(C)C(C)(C)C)C2S(=O)(=O)c1ccccc1 (stereo not given in full) | fulfilled |
| COc1ccc(CNCCN2C(=O)c3ccc4c5c(ccc(c35)C2=O)C(=O)N(CCNCc2ccc(OC)cc2)C4=O)cc1 | not fulfilled |
| COC(=O)C1=C(O)C(C(=O)OC)[C@@]2(O)[C@@H](C(=O)OC)C(c3ccccc3C(F)(F)F)C[C@@H]1[C@@H]2C(=O)OC (stereo not given in full) | fulfilled |

Task: Could you tell me if the measured TGI of `CN(C)CCNc1ccccn1` reaches 4 µM or more?
Output: fulfilled

Task: Similarly, CC(C)CCC[C@@H](C)C1CCC2[C@@H]3CC=C4C[C@@H](OC(=O)CCC(=O)NCC[N+](C)(C)CCCS(=O)(=O)[O-])CC[C@]4(C)C3CC[C@@]21C (stereo not given in full) ?
Output: fulfilled

Task: Also COc1cc(/C=C/C(=O)OC[C@]23O[C@H]2[C@@H](OC2OC(C)C(O)C(O)C2O)C2C=CO[C@@H](OC4OC(CO)C(O)C(O)C4O)C23)ccc1O (stereo not given in full) , if possible.
Output: fulfilled

====

- System: NCI-H460 lung
Your answer must be one of the following: TRUE = active, FALSE = inactive

Answered cases to consult:
| compound | class label |
| --- | --- |
| Cc1c(Br)cccc1NC(=O)c1sc2nc3c(cc2c1N)CN(Cc1ccccc1)CC3 | TRUE |
| COc1ccc(-n2cc(-c3ccc(Cl)cc3)[nH]c2=S)cc1Cl | FALSE |
| O=C(CCCCCn1c2ccccc2c2c3c(c4c5ccccc5[nH]c4c21)C(=O)N(O)C3=O)N1CCOCC1 | FALSE |
| N#CC1=C(N)NC(=S)NC1c1ccc(-c2ccc(-c3nc4ccccc4s3)cc2)o1 (configuration not stated) | FALSE |
| O=C(/C=C/c1ccco1)c1ccc(Nc2ccnc3cc(Cl)ccc23)cc1 | FALSE |
| O=c1cc(N2CCOCC2)oc2c(-c3ccccc3)cccc12 | FALSE |

Next item in the queue.
Task: Name the outcome recorded for `COC(=O)c1ccc2c(c1)[n+](=O)c(C(C)=O)c(C(F)(F)F)n2[O-]` in the assay.
Output: FALSE

====

The reader will find reported TGI values listed item by item below.
- Tested on: HT29 colon
- measurement notes: NCI tumour cell line growth inhibition, 48 h

Example entries begin here.
| compound | TGI |
| --- | --- |
| NC(N)=Nc1nc2cc(N)ccc2o1 | > 100 µM |
| COc1ccc(/C=N/N=C(N)N)c(C(=O)O)c1OC | > 100 µM |
| Cc1cc2nc(N)n[n+]([O-])c2cc1C | > 100 µM |
| c1ccc(C[P+]2(c3ccccc3)CCCCC2)cc1 | > 100 µM |
| COc1c2c(cc3oc(=O)ccc13)OC(C)(C)C=C2 | > 125 µM |
| Cc1cc(C)cc(NC(=O)CCC(=O)C2CCC/C2=N\NC(=O)C(=O)NN)c1 (stereo unspecified) | > 100 µM |
| COc1cc2c3c(c1OC)C1(C=CC(=O)C=C1)CC3N(C(=O)OC(C)(C)C(Cl)(Cl)Cl)CC2 (stereo unspecified) | 24.4 µM |
| O=C1/C=C(/c2ccc(O)cc2)[C@H](O)Cc2ccc(OC3OC(CO)C(O)C(O)C3O)cc2O1 (stereo partly specified) (tested in a mixture with another compound) | > 100 µM |
| COc1cc(C=C2C(=O)OC(C)(C)OC2=O)cc(OC)c1OC | > 100 µM |
| O=C(O)C(=O)/C=C\c1ccc(Cl)cc1 | > 100 µM |

Task: Given O=C(CC1Sc2ccccc2NC1=O)Nc1ccc([N+](=O)[O-])cc1[N+](=O)[O-] (stereo unspecified) , state its recorded TGI.
Output: 33.1 µM

====

- Test system: SF-268 CNS
- measurement notes: NCI tumour cell line growth inhibition, 48 h
Where a SMILES comes first, the peptide text is derived from it. [ ]: non-standard residue; d: D form. The star is where a group is joined. ξ: configuration not given here. 4Abz = Nc1ccc(C(=O)O)cc1; ξL = CC(C)CC(N)C(=O)O; NHOH = ON*
test readout: GI50

Please review the entries below; each comes with its answer.
| molecule | tested target | GI50 |
| --- | --- | --- |
| Nc1ncnc2c1ncn2C1OC(CO)C(O)C1O (stereo not drawn) | SF-268 CNS | 38.7 µM |
| CC(C)CC(NC(=O)[C@@H]1CCCN1C(=O)CNC(=O)c1ccc(N)cc1)C(=O)N[C@H](C)C(=O)NO (stereo partly drawn) (H-[4Abz]GP[ξL][dA]-{NHOH}) | SF-268 CNS | > 100 µM |
| Cc1c(Br)cccc1NC(=O)c1sc2nc3c(cc2c1N)CN(Cc1ccccc1)CC3 | SF-268 CNS | 0.525 µM |

Task: Given the entry C=C1c2c(C)nn(-c3ccccc3)c2N(C)C23C[C@@H]1C1(C)c4c(C)nn(-c5ccccc5)c4N(C)C(C)(C[C@H]12)C3 (stereo partly drawn) , report its measured GI50.
Output: 7.52 µM

Task: Also COc1cc(C2CC(c3ccc(C)cc3)=NN2C(C)=O)ccc1Oc1ccnc2cc(Cl)ccc12 (stereo not drawn) , if possible.
Output: 38.4 µM

Task: Queued: Nc1nc(Cl)cc2c1ncn2C1OC(CO)C(O)C1O (stereo not drawn)
Output: > 100 µM

Task: Param item: `C=CC[n+]1c(/C=C2\Sc3ccccc3N2C)sc(-c2ccccc2)c1-c1ccccc1`
Output: 0.405 µM

Task: Input `COc1ccc(-c2ccc(/C=N/n3cnn(CN4CCN(C)CC4)c3=S)o2)c([N+](=O)[O-])c1`
Output: 23.6 µM

====

- Test system: UO-31 renal
- measurement notes: NCI tumour cell line growth inhibition, 48 h
Where TGI equals or exceeds 30 µM, the correct label is TRUE; where it does not, the label is FALSE.

Solved entries:
| molecule | class label |
| --- | --- |
| O=C1CCCc2ccc3c(c21)CC1(Cc2cc4c(cc2C1)CCCC4)C3 | TRUE |
| Oc1cccc(-c2cc(=S)ss2)c1 | FALSE |
| CCOC(=O)C(=C=Cc1cccs1)C(=O)c1ccccc1 | FALSE |
| NC(=O)NC1=NCCC(=O)N1CCc1c[nH]c2ccccc12 | TRUE |
| C=C1CN(C(=O)c2cc3cc(OC)c(OC)c(OC)c3[nH]2)c2cc([N+](=O)[O-])ccc21 | TRUE |
| O=C(c1ccc(Cl)cc1)N(C(=S)N1CCN(c2ccccc2)CC1)C1CCCCC1 | TRUE |

Task: Determine whether measured TGI meets or exceeds 30 µM for `COc1cc(Oc2cnc3cc(N)cc(N)c3n2)cc(OC)c1OC`
Output: TRUE

Task: Cool, now O=C1N2CCN=C2c2ccccc2C1(O)c1ccccc1 (stereo unspecified)
Output: TRUE

Task: And then `C/C(=N\NC(=S)N/N=C(\C)c1ccccn1)c1ccccn1` , what is it?
Output: FALSE

====

Overview of recorded TGI for various compounds
- Tested on: HCT-15 colon
- measurement notes: NCI tumour cell line growth inhibition, 48 h

| compound | test readout | meas value |
| --- | --- | --- |
| COc1ccc(-c2cc(-c3ccco3)c(C#N)c(=O)n2C2OC(OC(=O)c3ccccc3)C(OC(=O)c3ccccc3)C2OC(=O)c2ccccc2)cc1 (centres undefined) | TGI | > 100 µM |
| CCCCc1ccc(Nc2nc(N)c3[nH]cnc3n2)cc1 | TGI | 66.1 µM |

Moving on to another compound below.
Task: I am curious: what TGI value has been reported for CCCCCCCCOCC(O)COC (centres undefined) ?
Output: > 100 µM
